- experiment-summary: Cytotoxicity against human MT4 cells by MTT assay
- Format: cell-based
measured-parameter: CC50

Inquiry: Value lookup for CC50; key = Cc1ccc(CSC[C@@H](NS(C)(=O)=O)C(=O)N[C@@H](Cc2ccccc2)[C@H](O)C(=O)N2CSC(C)(C)[C@H]2C(=O)NCc2ccccc2C)cc1
Reply text: 8.9 µM

Inquiry: Value lookup for CC50; key = CC(=O)N[C@H](CS(=O)(=O)Cc1ccccc1)C(=O)N[C@@H](Cc1ccccc1)[C@H](O)C(=O)N1CSC(C)(C)[C@H]1C(=O)NCc1ccccc1C
Reply text: > 28 µM

Inquiry: Value lookup for CC50; key = Cc1ccccc1CNC(=O)[C@H]1N(C(=O)[C@@H](O)[C@H](Cc2ccccc2)NC(=O)[C@@H](CS(=O)(=O)c2ccc(F)cc2)NS(C)(=O)=O)CSC1(C)C
Reply text: > 27 µM

Inquiry: Value lookup for CC50; key = COc1ccc(CS(=O)(=O)C[C@@H](NS(C)(=O)=O)C(=O)N[C@@H](Cc2ccccc2)[C@H](O)C(=O)N2CSC(C)(C)[C@H]2C(=O)NCc2ccccc2C)cc1
Reply text: > 26 µM
